These data points were gathered from patent US11946041B2.

# test.target: CCR4 (Homo sapiens)
# Construct: host or cells: CHO-K1
# Sequence (P51679 whole entry): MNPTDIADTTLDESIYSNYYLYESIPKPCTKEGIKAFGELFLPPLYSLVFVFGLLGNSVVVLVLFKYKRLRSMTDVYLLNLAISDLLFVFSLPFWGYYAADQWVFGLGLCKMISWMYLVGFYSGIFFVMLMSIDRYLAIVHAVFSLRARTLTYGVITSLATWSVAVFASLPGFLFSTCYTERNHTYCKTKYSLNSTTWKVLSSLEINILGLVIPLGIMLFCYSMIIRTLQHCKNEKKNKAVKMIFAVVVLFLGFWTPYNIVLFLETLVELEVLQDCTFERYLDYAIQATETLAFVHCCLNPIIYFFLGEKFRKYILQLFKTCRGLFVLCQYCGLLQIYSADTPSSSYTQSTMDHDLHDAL
# protocol.text: PathHunter eXpress CCR4 CHO-K1 β-Arrestin GPCR Assay, agonist format
# Type: cell-based
# test.context: high concentration, 5.6 uM
measured.attribute: Raw Data

Use the examples below as a reference point.
- item.sequence: "ACQLTCLPPPRQPGCA [24-15-00-N001, bicyclic peptide ligand, TATA scaffold, from CCR4 cell-based selection]"
  reported.measurement: 13067
- item.sequence: "ACPLMSSVNCTAGCA [24-13-00-N001, bicyclic peptide ligand, TBMB scaffold, from CCR4 cell-based selection]"
  reported.measurement: 12460
- item.sequence: "ACQLTCLTPARQPGCA [24-14-00-N001, bicyclic peptide ligand, TATA scaffold, from CCR4 cell-based selection]"
  reported.measurement: 12720
- item.sequence: "ACLSCARHGNQCA [24-12-00-N001, bicyclic peptide ligand, TATA scaffold, from CCR4 cell-based selection]"
  reported.measurement: 12922
- item.sequence: "ACQTLCNTAEDIRCA [24-16-00-N001, bicyclic peptide ligand, TBMB scaffold, from CCR4 cell-based selection]"
  reported.measurement: 14263

A: ACRAVHSLRCLTTCA [24-17-00-N001, bicyclic peptide ligand, TATA scaffold, from CCR4 cell-based selection]
B: ACLNGCRNTNSQCA [24-11-00-N001, bicyclic peptide ligand, TATA scaffold, from CCR4 cell-based selection]
Task item: Input pair: A , B . Output: entry with lower Raw Data. API: response body contains the label of the selected item.
Reply: B
